assayedTarget: UniProt:Q9H0K1
Sequence (Q9H0K1 whole entry): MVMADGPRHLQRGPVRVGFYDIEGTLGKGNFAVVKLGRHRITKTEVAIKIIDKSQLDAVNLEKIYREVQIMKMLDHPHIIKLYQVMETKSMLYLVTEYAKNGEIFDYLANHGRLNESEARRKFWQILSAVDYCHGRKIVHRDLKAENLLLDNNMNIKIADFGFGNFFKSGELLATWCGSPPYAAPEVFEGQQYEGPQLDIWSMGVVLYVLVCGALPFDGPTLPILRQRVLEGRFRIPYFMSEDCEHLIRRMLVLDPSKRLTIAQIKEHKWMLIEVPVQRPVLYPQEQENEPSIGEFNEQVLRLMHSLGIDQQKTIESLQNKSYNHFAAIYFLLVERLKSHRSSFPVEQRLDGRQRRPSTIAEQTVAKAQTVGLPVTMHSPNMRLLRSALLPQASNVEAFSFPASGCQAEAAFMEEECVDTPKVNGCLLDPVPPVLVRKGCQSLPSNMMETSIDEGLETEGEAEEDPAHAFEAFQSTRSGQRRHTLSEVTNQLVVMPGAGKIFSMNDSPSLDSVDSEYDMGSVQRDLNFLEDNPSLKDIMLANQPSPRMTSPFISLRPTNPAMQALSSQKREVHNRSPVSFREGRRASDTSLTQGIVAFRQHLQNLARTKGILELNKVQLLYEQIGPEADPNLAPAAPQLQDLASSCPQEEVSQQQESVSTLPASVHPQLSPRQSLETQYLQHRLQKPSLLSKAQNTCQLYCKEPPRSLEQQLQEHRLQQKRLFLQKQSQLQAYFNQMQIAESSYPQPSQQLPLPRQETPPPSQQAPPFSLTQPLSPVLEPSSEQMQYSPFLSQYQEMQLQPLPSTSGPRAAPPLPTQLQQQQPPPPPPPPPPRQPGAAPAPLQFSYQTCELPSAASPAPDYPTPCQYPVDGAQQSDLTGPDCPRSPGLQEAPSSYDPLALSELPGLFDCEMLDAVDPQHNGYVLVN
measurementDescription: radiometric protein kinase assay (33PanQinase Activity Assay, ProQinase Free Choice Kinase Assay)
Format: biochemical
statedConditions: indicative IC50, Table 4; ATP 1.0 uM; read-out: SIK2 IC50 rank
Answer each item with its documented IC50.

For the molecule `Cc1nc(Nc2ncc(C(=O)Nc3c(C)cccc3Cl)s2)cc(N2CCN(C)CC2)n1` , give its measured IC50 value.
< 100 nM

For the molecule `CC(=O)N1CCN(c2cc(Nc3ncc(C(=O)Nc4c(C)cccc4Cl)s3)nc(C)n2)CC1` , give its measured IC50 value.
< 100 nM

For the molecule `CCOc1cccc(Cl)c1NC(=O)c1cnc(Nc2cc(N3CCN(CCO)CC3)nc(C)n2)s1` , give its measured IC50 value.
> 1000 nM

For the molecule `Cc1nc(Nc2ncc(C(=O)Nc3c(Br)cccc3Br)s2)cc(N2CCN(CCO)CC2)n1` , give its measured IC50 value.
< 100 nM

For the molecule `Cc1nc(Nc2ncc(C(=O)Nc3ccc(F)c(Cl)c3)s2)cc(N2CCN(CCO)CC2)n1` , give its measured IC50 value.
> 500 nM

For the molecule `COc1c(F)cccc1NC(=O)c1cnc(Nc2cc(N3CCN(CCO)CC3)nc(C)n2)s1` , give its measured IC50 value.
> 100 nM

For the molecule `Cc1nc(NCCO)cc(Nc2ncc(C(=O)Nc3c(C)cccc3Cl)s2)n1` , give its measured IC50 value.
< 100 nM

For the molecule `Cc1nc(Nc2ncc(C(=O)Nc3c(Cl)cccc3Br)s2)cc(N2CCN(CCO)CC2)n1` , give its measured IC50 value.
< 100 nM
